Biological target: recombinant PRL-1 (Homo sapiens)
Construct: 6xHis (N, cleaved yes); made in house; host or cells: E. coli One Shot BL21 Star
Sequence (Q93096 1-173): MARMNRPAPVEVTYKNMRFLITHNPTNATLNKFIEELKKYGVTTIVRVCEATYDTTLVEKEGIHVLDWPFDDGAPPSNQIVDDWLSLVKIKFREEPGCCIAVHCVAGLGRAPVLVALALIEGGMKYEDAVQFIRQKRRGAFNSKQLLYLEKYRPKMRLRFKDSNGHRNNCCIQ
Assay: In vitro phosphatase assay (DiFMUP hydrolysis), PRL-1
Type: biochemical
Conditions: 2.5 µM protein, DiFMUP at KM; read-out: Calculated IC50, PRL-1 phosphatase activity
endpoint.label: pIC50
pIC50 here is simply -log10 of the concentration when that concentration is written in mol/L.

Here is how some compounds turned out for pIC50.
> print(dat)
                                   compound  endpoint.label  assay.result
1  Cc1cc(C(C#N)c2ccc(Cl)cc2)c(Cl)cc1NC(=O)c1cc(I)cc(I)c1O (stereo not drawn) [Closantel, reference compound]           pIC50          4.77
2  CC(C)=CCC/C(C)=C/CC/C(C)=C/CSc1ccccc1C(=O)O           pIC50          4.28

Next, consider the following compound.
QUERY: Return reported pIC50; argument: CCCCC(CC)COC(=O)CC(C(=O)OCC(CC)CCCC)S(=O)(=O)O (stereo not drawn) [Docusate Sodium, reference compound]
RESULT: 4.03
